// GI50 lookup, one value per entry
System: Malme-3M
Test: NCI tumour cell line growth inhibition, 48 h
Calls of active or inactive are those of the source. Rule as the data show it: active = GI50 up to about 1.1 µM and inactive = higher.
experimentalEndpoint: GI50

# molecule, systemTested, readoutValue
measured = [
    ("CC(C)(Cc1ccccc1)N1C(=O)N1C(C)(C)Cc1ccccc1", "Malme-3M", "23.4 µM (inactive)"),
    ("Cc1ccc(Cc2n[nH]c(=O)n2N2C(=O)c3ccccc3C2=O)cc1", "Malme-3M", "> 100 µM (inactive)"),
    ("CC(=O)O[C@H]1CC[C@@]2(C)C(=CC[C@@H]3[C@@H]2CC[C@]2(C)Nc4c(cnn4S(C)(=O)=O)C[C@@H]32)C1", "Malme-3M", "> 100 µM (inactive)"),
    ("Cc1cccc(C(=O)c2cccc3ccccc23)c1C(=O)O", "Malme-3M", "> 100 µM (inactive)"),
    ("N#Cc1c(-c2ccccc2)nc(-c2ccccc2)sc1=S", "Malme-3M", "> 100 µM (inactive)"),
    ("CCOP(=O)(O)C(Nc1ccc(/N=N/c2ccccc2)cc1)c1ccc(C(Nc2ccc(/N=N/c3ccccc3)cc2)P(=O)(O)OCC)cc1 (centres undefined)", "Malme-3M", "17.9 µM (inactive)"),
    ("COC(=O)C1=C(OC(=O)/C(=C/c2ccccc2)c2ccc(OC)cc2)C(C(=O)OC)[C@@]2(O)[C@@H](C(=O)OC)[C@H](C)C[C@@H]1[C@@H]2C(=O)OC (some centres undefined)", "Malme-3M", "> 100 µM (inactive)"),
    ("COc1ccc(/C=C/c2cc(OC)c(OCc3ccccc3)c(OC)c2)cc1", "Malme-3M", "> 100 µM (inactive)"),
    ("CCC1(OC(=O)CN2CCN(CCO)CC2)C(=O)OCc2c1cc1n(c2=O)Cc2cc3ccccc3nc2-1 (centres undefined)", "Malme-3M", "1.95 µM (inactive)"),
]

====

System: NCI/ADR-RES
Assay: NCI tumour cell line growth inhibition, 48 h
Active and inactive are the calls of the source. Rule as the data show it: active = GI50 up to about 1.1 µM and inactive = higher.
Classes used: active, inactive

# molecule, group
records = [
    ("O/N=C1/Nc2cc(Cl)ccc2C(=S)N2CSCC12 (centres undefined)", "inactive"),
    ("C=CCN(c1cc(O)c2c(c(C)cn2S(=O)(=O)c2ccccc2)c1[N+](=O)[O-])S(C)(=O)=O", "inactive"),
    ("COc1cc(-c2oc3c(OC)c(O)c(OC)c(O)c3c(=O)c2OC)cc(O)c1OC", "inactive"),
    ("CCC1(OC(=O)CN2CCN(CCO)CC2)C(=O)OCc2c1cc1n(c2=O)Cc2cc3ccccc3nc2-1 (centres undefined)", "active"),
    ("CCOC(=O)C1(Cc2ccccc2)Cc2ccccc2C1=O (centres undefined)", "inactive"),
    ("Nc1ncnc2c1ncn2[C@@H]1O[C@H](COC(c2ccccc2)(c2ccccc2)c2ccccc2)[C@@H](OC(=S)Oc2ccccc2)[C@@H]1F", "inactive"),
    ("CC(C)[C@@H]1CC[C@@H](C)C[C@H]1OC(=O)/C=C1/C2C=CC(O2)C1C(=O)O[C@@H]1C[C@H](C)CC[C@H]1C(C)C (some centres undefined)", "inactive"),
    ("NS(=O)(=O)c1ccc(/C=C/c2ccc(F)cc2)cc1", "inactive"),
    ("O=C(N/N=C(COc1cccc(Cl)c1)\\N=C\\c1cccnc1)c1ccncc1", "inactive"),
]

====

Tested on: COLO 205
Experiment: NCI tumour cell line growth inhibition, 48 h
Calls of active or inactive are those of the source. Rule as the data show it: active = GI50 up to about 1.1 µM and inactive = higher.
experimentalEndpoint: GI50

# compound, systemTested, readoutValue
rows = [
    ("N/N=C(\\N)SCc1ccc(N=C=S)cc1", "COLO 205", "> 100 µM (inactive)"),
    ("O=C1C(c2c(O)[nH]c3ccc(Br)cc23)=Nc2ccccc21", "COLO 205", "5.65 µM (inactive)"),
    ("CC(C)(C)c1cc(C(=O)/C=C/c2c(Cl)cccc2Cl)cc(C(C)(C)C)c1O", "COLO 205", "15.9 µM (inactive)"),
    ("COC(=O)C(=O)C(C(=O)C(=O)Nc1cc([N+](=O)[O-])ccc1C#N)c1nc2ccccc2nc1O (stereo unspecified)", "COLO 205", "> 100 µM (inactive)"),
    ("COC(=O)/C=C/c1ccc(OP(=O)(O)O)c(OC)c1", "COLO 205", "> 100 µM (inactive)"),
    ("Cc1ccc(-c2c3nc(c(-c4ccc(C)cc4)c4ccc([nH]4)c(-c4ccc(OCC5COC(C)(C)O5)cc4)c4nc(c(-c5ccc(C)cc5)c5ccc2[nH]5)C=C4)C=C3)cc1 (stereo unspecified)", "COLO 205", "> 31.6 µM (inactive)"),
]

====

Below, each entry is listed with its recorded GI50.
Test system: SNB-78
Assay: NCI tumour cell line growth inhibition, 48 h
The source made the active and inactive calls. Rule as the data show it: active = GI50 up to about 1.1 µM and inactive = higher.
experimentalEndpoint: GI50

# compound, experimentalEndpoint, readoutValue
records = [
    ("COC(=O)[C@H]1N[C@@H](C(=O)OC)C23CCC[C@H]2CC[C@]1(C(OC)OC)C3", "GI50", "> 100 µM (inactive)"),
    ("CC[C@@]1(OP(=O)(O)O)C(=O)OCc2c1cc1n(c2=O)Cc2cc3ccccc3nc2-1", "GI50", "4.63 µM (inactive)"),
    ("CCOC(=O)C(=O)NCCCN1CCOCC1", "GI50", "> 100 µM (inactive)"),
    ("CC1(C2CCC3(C)OC3C2)CO1 (stereo not drawn)", "GI50", "> 100 µM (inactive)"),
    ("Nc1nc(=O)[nH]c2c1cnn2C1CCCCO1 (stereo not drawn)", "GI50", "> 100 µM (inactive)"),
    ("O=C(Nc1ccc(Cl)cc1Cl)/C(Cl)=C1/Sc2ccccc2NC1=O", "GI50", "44.9 µM (inactive)"),
    ("CCc1ccccc1NC(=O)CC1NC(=O)CS1 (stereo not drawn)", "GI50", "> 100 µM (inactive)"),
    ("O=c1c2cc3c(=O)n(CCc4ccccc4CO)c(=O)c3cc2c(=O)n1CCc1ccccc1CO", "GI50", "> 100 µM (inactive)"),
    ("O=C(n1c2ccccc2c2nnc(S)nc21)C(F)(F)F", "GI50", "> 100 µM (inactive)"),
    ("Cc1cc(Cl)ccc1NC(=O)C1C(=O)N(c2ccc(Cl)cc2C)C(=O)/C1=N\\N (stereo not drawn)", "GI50", "74.8 µM (inactive)"),
    ("COc1cccc(/C=N/[N-]C(=S)Nc2ccccc2)c1[O-].O.[Zn+2]", "GI50", "40.1 µM (inactive)"),
    ("CCO/C=C1\\N=C(c2ccc(Cl)c(Cl)c2)OC1=O", "GI50", "> 100 µM (inactive)"),
    ("COC1=NCc2ccccc2-c2ccccc21", "GI50", "> 100 µM (inactive)"),
    ("Nc1nc(SCc2ccccc2Cl)c2[nH]cnc2n1", "GI50", "> 100 µM (inactive)"),
    ("C=C(N=[N+]=[N-])c1cn(C2CC(O)C(CO)O2)c(=O)[nH]c1=O (stereo not drawn)", "GI50", "> 100 µM (inactive)"),
    ("COC(=O)c1c(N)n[nH]c1N", "GI50", "> 100 µM (inactive)"),
    ("CC1(C)c2ccccc2N2C(c3ccccc3)=NOC21C (stereo not drawn)", "GI50", "> 100 µM (inactive)"),
    ("O=c1c2ccccc2c2nc3ccccc3nc2n1C1CCCCC1", "GI50", "> 100 µM (inactive)"),
    ("Nc1nc(N)c2nc(-c3ccco3)cnc2n1", "GI50", "> 100 µM (inactive)"),
    ("COC(=O)[C@H]1C=C[C@@H](C)n2c(=O)c3cc4ccccc4cc3c(=O)n21", "GI50", "> 100 µM (inactive)"),
    ("c1ccc(C(c2ccccc2)c2ccccn2)cc1", "GI50", "> 100 µM (inactive)"),
    ("O=C(O)[C@@H](NS(=O)(=O)c1ccc(F)cc1)c1ccccc1", "GI50", "> 100 µM (inactive)"),
    ("O=[N+]([O-])c1ccc(COc2cccc3cccnc23)cc1", "GI50", "38.2 µM (inactive)"),
]

====

System: HT-29
Experiment: NCI tumour cell line growth inhibition, 48 h
The source made the active and inactive calls. No stated cut-off is given here; in the data, active = GI50 up to about 1.1 µM and inactive = higher.
Outcome codes: yes for active, no for inactive

# molecule, systemTested, group
records = [
    ("CC(=O)c1ccc2c3c1[C@H]1O[C@H]1c1cccc(c1-3)[C@@H]1O[C@H]21", "HT-29", "no"),
    ("Nc1nc(N)c(-c2cccc(C(F)(F)F)c2)c(Cc2cccc(C(F)(F)F)c2)n1", "HT-29", "no"),
    ("NC(=S)N/N=C1\\C(=O)N(CCc2ccccc2)C(=O)C1C(=O)NCCc1ccccc1 (stereo unspecified)", "HT-29", "no"),
    ("BrC(c1cccc2ccccc12)c1cccc2ccccc12", "HT-29", "no"),
    ("Cc1ccc(SCC(OCn2cnc3c(Cl)nc(N)nc32)[C@H](C)F)cc1 (stereo partly specified)", "HT-29", "no"),
    ("COC(=O)C1Cc2c([nH]c3ccccc23)C(c2cccc(O)c2)N1 (stereo unspecified)", "HT-29", "no"),
    ("COC(=O)C1=C(C(=O)OC)C2(c3ccccc3)OC1(c1ccccc1)c1cc3ccccc3cc12", "HT-29", "no"),
    ("C=C[C@]1(C)CC[C@]2(C)C(CC[C@@]3(C)C2C[C@H](O)[C@H](O)[C@@]3(C)O)C1 (stereo partly specified)", "HT-29", "no"),
    ("CC(C)(C)OC(=O)n1cc(C2CNC(=O)C23CCC(=O)N3Cc2ccccc2)c2ccccc21 (stereo unspecified)", "HT-29", "no"),
    ("COc1ccc2[nH]c3c(C)c4cc[n+](C)cc4c(C)c3c2c1", "HT-29", "no"),
    ("Cc1[nH]c2ccccc2c1/C=N/NC(=O)c1cccc(I)c1", "HT-29", "no"),
    ("O=C(C/N=C(\\CN(c1ccccc1)c1ccccc1)Oc1ccc(Cl)cc1Cl)n1ccnc1", "HT-29", "no"),
    ("CN(CC1NCCCC1O)C12CC3CC(CC(C3)C1)C2 (stereo unspecified)", "HT-29", "no"),
    ("COc1ccc(NS(=O)(=O)c2ccc(NC(NC(=O)CC(C)C)(C(F)(F)F)C(F)(F)F)cc2)nn1", "HT-29", "no"),
    ("CCOC(=O)c1c(N2CCCC2)ncn(Cc2ccccc2)c1=S", "HT-29", "no"),
    ("CN(C)CCCNc1ncnc2c1ncn2C1OC(CO)C(O)C1O (stereo unspecified)", "HT-29", "no"),
    ("COC(=O)c1ccccc1NC(=O)C(=O)CC(=O)CC(c1ccccc1)c1c(O)c2ccccc2oc1=O (stereo unspecified)", "HT-29", "no"),
    ("COc1ccc2[nH]c3c(C)c4cnccc4c(C)c3c2c1", "HT-29", "yes"),
    ("O=C(O)Cc1ccc(/N=N/c2c(O)c(C(=O)O)cc3ccccc23)cc1", "HT-29", "no"),
    ("C=C=CC(NC(=O)c1ccccc1)(C(=O)O)C(F)(F)F (stereo unspecified)", "HT-29", "no"),
    ("COc1ccc(C(SCCO)(c2ccccc2)c2ccccc2)cc1", "HT-29", "no"),
]

Where do these numbers come from? They come from ChEMBL document CHEMBL1201862.
